All figures here come from patent US7122570B2.

Target: GnRH receptor (Homo sapiens)
Sequence (P30968 1-328): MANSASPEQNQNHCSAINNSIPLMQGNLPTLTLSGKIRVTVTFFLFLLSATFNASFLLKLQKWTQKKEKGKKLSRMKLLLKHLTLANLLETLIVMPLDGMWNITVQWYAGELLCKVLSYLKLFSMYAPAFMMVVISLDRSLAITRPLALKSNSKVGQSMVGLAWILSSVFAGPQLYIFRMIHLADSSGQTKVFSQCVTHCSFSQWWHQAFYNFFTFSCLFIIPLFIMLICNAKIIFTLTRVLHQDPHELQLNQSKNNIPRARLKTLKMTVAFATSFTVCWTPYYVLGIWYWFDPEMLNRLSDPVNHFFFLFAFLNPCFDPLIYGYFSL
Test: Functional reporter gene assay (luciferase) in LTK cells carrying GnRH receptors, triptorelin stimulation
Format: cell-based
Set-up: expressed in transfected cells; host or cells: LTK cells (ATCC No. CCL-1.3), stably transfected, with CRE / CMV minimal promoter luciferase reporter
Conditions: inhibition of triptorelin/Rolipram-stimulated luciferase reporter
observedProperty: log10 of EC50 (log10 of the value in nM)
log10 EC50, nM

- compound: "CCC(C)[C@H](NC(=O)[C@@]1(NC(=O)[C@H](CC2CCCCC2)NC(=O)OCc2ccccc2)CCc2[nH]c3c(Cl)cc(Cl)cc3c2C1)C(N)=O (stereo partly shown)"
  assayedTarget: "GnRH receptor (Homo sapiens)"
  log10 of EC50: 1.23
- compound: "CC[C@H](C)[C@H](NC(=O)[C@@]1(NC(=O)[C@H](Cc2ccc(O)cc2)NC(=O)OCc2ccccc2)CCc2[nH]c3c(Cl)cc(Cl)cc3c2C1)C(N)=O"
  assayedTarget: "GnRH receptor (Homo sapiens)"
  log10 of EC50: 2.51
- compound: "CC[C@H](C)[C@H](NC(=O)[C@@]1(NC(=O)[C@@H](NC(=O)OCc2ccccc2)[C@@H](C)CC)CCc2[nH]c3c(OC)cccc3c2C1)C(N)=O"
  assayedTarget: "GnRH receptor (Homo sapiens)"
  log10 of EC50: 1.95
- compound: "CC[C@H](C)[C@H](NC(=O)[C@@]1(NC(=O)[C@H](CCc2ccccc2)NC(=O)OCc2ccccc2)CCc2[nH]c3c(Cl)cc(Cl)cc3c2C1)C(N)=O"
  assayedTarget: "GnRH receptor (Homo sapiens)"
  log10 of EC50: 1.26
- compound: "CC[C@H](C)[C@H](NC(=O)[C@@]1(NC(=O)[C@@H](NC(=O)OCc2ccccc2)[C@@H](C)CC)CCc2[nH]c3c(Cl)cc(Cl)cc3c2C1)C(N)=O"
  assayedTarget: "GnRH receptor (Homo sapiens)"
  log10 of EC50: 0.85

Problem: Field request: log10 of EC50 | item: CC[C@H](C)[C@H](NC(=O)OCc1ccccc1)C(=O)N[C@]1(C(=O)N[C@H](C(N)=O)C(C)C)CCc2[nH]c3c(F)cc(F)cc3c2C1
Solution: 2.88

Problem: Given the entry CC[C@H](C)[C@H](NC(=O)OCc1ccccc1)C(=O)N[C@]1(C(=O)N[C@@H](CCc2ccccc2)C(N)=O)CCc2[nH]c3c(Cl)cc(Cl)cc3c2C1 , report its measured log10 of EC50.
Solution: 3.18
